biological target: Sulfonylurea receptor 1, Kir6.2 (Homo sapiens) (UniProt Q14654+Q09428); assay: Antiarrhythmic effect in hSUR1/hKir6.2 (pancreatic KATP channel) transfected in CHO cells at a dose of 1 uM; type: functional, cell-based; settings: at 1 µM
Here the recorded inhibition is given for each entry.

- molecule: "CNC(=O)NS(=O)(=O)c1ccc(CCNC(=O)c2cc(Cl)ccc2OC)cc1"
  inhibition [%]: 62.8
- molecule: "CN/C(S)=N/S(=O)(=O)c1cc(CCNC(=O)c2cc(Cl)ccc2OC)cc(OC)c1OC"
  inhibition [%]: -2.12
- molecule: "CNC(=S)NS(=O)(=O)c1cc(CCNC(=O)c2cc(Cl)ccc2OC)ccc1OC"
  inhibition [%]: 24.3
- molecule: "COc1ccc(Cl)cc1C(=O)NCCc1ccc(OC)c(S(=O)(=O)/N=C(/N)S)c1"
  inhibition [%]: 11.2
- molecule: "CN/C(S)=N/S(=O)(=O)c1cc(CCNC(=O)c2cc(Cl)ccc2OC)ccc1[S+](C)[O-] (centres undefined)"
  inhibition [%]: 2.4
- molecule: "CN/C(S)=N/S(=O)(=O)c1cc(CCNC(=O)c2cc(Cl)ccc2OC)ccc1Cl"
  inhibition [%]: 2.8
- molecule: "CCOc1ccc(CCNC(=O)c2cc(Cl)ccc2OC)cc1S(=O)(=O)/N=C(\\S)NC"
  inhibition [%]: 16.3
- molecule: "CN/C(S)=N/S(=O)(=O)c1cc(CCNC(=O)c2cc(Cl)ccc2OC)ccc1-c1ccccc1"
  inhibition [%]: 33
- molecule: "CN/C(S)=N/S(=O)(=O)c1cc(CCNC(=O)c2cc(Cl)ccc2OC)ccc1-c1ccccn1"
  inhibition [%]: 24.4
- molecule: "COc1ccc(Cl)cc1C(=O)NCCc1ccc(OC)c(S(=O)(=O)/N=C(\\S)NC2CCCCC2)c1"
  inhibition [%]: 87.6
- molecule: "CN/C(S)=N/S(=O)(=O)c1cc(CCNC(=O)c2cc(Cl)ccc2OC)ccc1OCCOC"
  inhibition [%]: 26.2
- molecule: "C#Cc1ccc(CCNC(=O)c2cc(Cl)ccc2OC)cc1S(=O)(=O)/N=C(\\S)NC"
  inhibition [%]: 3.4
- molecule: "CCCc1ccc(CCNC(=O)c2cc(Cl)ccc2OC)cc1S(=O)(=O)/N=C(\\S)NC"
  inhibition [%]: 41.5
- molecule: "COc1ccc(Cl)cc1C(=O)NCCc1ccc(OC)c(S(=O)(=O)NC(=O)N(C)C)c1"
  inhibition [%]: -3.2
- molecule: "CCCOc1ccc(CCNC(=O)c2cc(Cl)ccc2OC)cc1S(=O)(=O)/N=C(\\S)NC"
  inhibition [%]: 63.6
- molecule: "CNC(=O)NS(=O)(=O)c1cc(CCNC(=O)c2cc(Cl)ccc2OC)ccc1OC"
  inhibition [%]: -1.3
- molecule: "C=CCOc1ccc(CCNC(=O)c2cc(Cl)ccc2OC)cc1S(=O)(=O)/N=C(\\S)NC"
  inhibition [%]: 31.8
- molecule: "CN/C(S)=N/S(=O)(=O)c1cc(CCNC(=O)c2cc(Cl)ccc2OC)c(OC)cc1OC"
  inhibition [%]: 0.7
- molecule: "CN/C(S)=N/S(=O)(=O)c1cc(CCNC(=O)c2cc(Cl)ccc2OC)ccc1S(C)(=O)=O"
  inhibition [%]: 1.1
